measurementTarget: Tyrosine-protein kinase JAK1 (Homo sapiens, UniProt P23458)
Sequence (P23458 whole entry): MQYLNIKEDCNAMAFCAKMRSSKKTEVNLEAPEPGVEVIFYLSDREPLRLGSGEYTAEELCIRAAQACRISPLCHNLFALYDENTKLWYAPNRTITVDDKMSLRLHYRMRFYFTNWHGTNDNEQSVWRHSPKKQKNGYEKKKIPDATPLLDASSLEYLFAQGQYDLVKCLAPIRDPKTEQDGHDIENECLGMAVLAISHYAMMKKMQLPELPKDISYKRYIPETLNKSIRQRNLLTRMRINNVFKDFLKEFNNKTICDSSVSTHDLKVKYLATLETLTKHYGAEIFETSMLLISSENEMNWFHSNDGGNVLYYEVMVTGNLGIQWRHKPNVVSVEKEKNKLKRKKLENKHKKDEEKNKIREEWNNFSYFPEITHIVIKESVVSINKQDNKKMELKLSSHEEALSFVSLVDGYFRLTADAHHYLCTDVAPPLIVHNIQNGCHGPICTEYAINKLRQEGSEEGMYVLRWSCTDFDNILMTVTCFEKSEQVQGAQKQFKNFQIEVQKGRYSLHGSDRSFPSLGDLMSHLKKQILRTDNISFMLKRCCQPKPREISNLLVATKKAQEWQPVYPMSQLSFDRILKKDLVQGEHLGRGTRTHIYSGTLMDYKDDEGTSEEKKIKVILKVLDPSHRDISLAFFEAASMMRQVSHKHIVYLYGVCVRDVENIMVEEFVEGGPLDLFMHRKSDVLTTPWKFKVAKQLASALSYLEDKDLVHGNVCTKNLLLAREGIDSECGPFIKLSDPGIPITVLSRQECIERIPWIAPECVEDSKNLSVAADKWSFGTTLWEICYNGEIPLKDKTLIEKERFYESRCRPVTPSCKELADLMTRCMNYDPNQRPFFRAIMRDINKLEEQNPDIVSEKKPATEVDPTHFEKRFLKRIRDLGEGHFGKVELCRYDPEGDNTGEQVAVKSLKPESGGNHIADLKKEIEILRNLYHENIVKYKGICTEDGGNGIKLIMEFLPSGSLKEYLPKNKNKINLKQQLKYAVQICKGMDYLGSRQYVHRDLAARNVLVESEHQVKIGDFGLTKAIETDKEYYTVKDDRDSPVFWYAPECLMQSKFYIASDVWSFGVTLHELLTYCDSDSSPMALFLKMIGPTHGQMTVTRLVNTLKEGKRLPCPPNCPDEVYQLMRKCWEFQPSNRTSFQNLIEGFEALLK
experimentSummary: JAK1 (PSTAT3 TF1) Alpha Screen Assay
Description: IL-6 is known to transduce its signal through IL-6 receptor via Jak1. Activity against Jak was therefore measured by determining inhibition of IL-6 induced phosphorylation of STAT3 in TF1 cells. From these tests, the EC50 (effective concentration for 50% maximal response) values were determined in 1 μM for the test compounds.
Response field label takes class 1 when EC50 is strictly below 20 µM and class 0 in all other cases.

{"compoundString": "CC[C@]1(c2cc(C#N)cc(-c3cn(C)c4cnc(NC(C)=O)cc34)n2)CCOC1", "measurementTarget": "Tyrosine-protein kinase JAK1 (Homo sapiens, UniProt P23458)", "classLabel": "class 1"}
{"compoundString": "COc1cc(-c2cn(C)c3cnc(NC(C)=O)cc23)nc([C@]2(OC)CCOC2)c1", "measurementTarget": "Tyrosine-protein kinase JAK1 (Homo sapiens, UniProt P23458)", "classLabel": "class 0"}
{"compoundString": "COCc1cc(-c2cn(C3COC3)c3cnc(NC(C)=O)cc23)nc([C@]2(OC)CCOC2)c1", "measurementTarget": "Tyrosine-protein kinase JAK1 (Homo sapiens, UniProt P23458)", "classLabel": "class 0"}
{"compoundString": "CO[C@@]1(c2cc(C(F)F)cc(-c3cn(C)c4cnc(NC(C)=O)cc34)n2)CCOC1", "measurementTarget": "Tyrosine-protein kinase JAK1 (Homo sapiens, UniProt P23458)", "classLabel": "class 1"}
{"compoundString": "CO[C@@]1(c2cc(C(F)F)cc(-c3cn(C4COC4)c4cnc(NC(C)=O)cc34)n2)CCOC1", "measurementTarget": "Tyrosine-protein kinase JAK1 (Homo sapiens, UniProt P23458)", "classLabel": "class 0"}
{"compoundString": "CO[C@@]1(c2cc(C#N)cc(-c3cn(C)c4cnc(NC(N)=O)cc34)n2)CCOC1", "measurementTarget": "Tyrosine-protein kinase JAK1 (Homo sapiens, UniProt P23458)", "classLabel": "class 1"}
